Collected IC50 values appear next to each entry.
tested on: HeLa; assay: In vitro antiproliferative activity against human uterine carcinoma HeLa S3 cells.; format: functional, cell-based; details: hela
State just the number; it will be interpreted in nM.

| compound | propertyLabel | unitSpec | quantitativeResult |
| --- | --- | --- | --- |
| CO\N=C1/C=C/C=C\c2csc(n2)[C@@H](C)NC(=O)C[C@@]2(CC/C(C)=C/[C@H]1O)[S+]([O-])SC(=O)[C@]2(C)O (stereo in doubt; 9b-1) | IC50 | nM | 67 |

Consider C/C1=C\[C@@H](O)C(=N/OCc2ccccc2)/C=C/C=C\c2csc(n2)[C@@H](C)NC(=O)C[C@@]2(CC1)[S+]([O-])SC(=O)[C@]2(C)O (stereo in doubt; 9c-2) . Its measured IC50 is 9.5

Measured IC50 of C/C1=C\[C@@H](O)C(O)/C=C/C=C\c2csc(n2)[C@@H](C)NC(=O)C[C@@]2(CC1)[S+]([O-])SC(=O)[C@]2(C)O (stereo in doubt; 7-1) : 6200

Reported IC50 ( C/C1=C\[C@@H](O)C(=N/OCc2ccccc2)/C=C/C=C\c2csc(n2)[C@@H](C)NC(=O)C[C@@]2(CC1)[S+]([O-])SC(=O)[C@]2(C)O (stereo in doubt; 9c-1) ) = 110
